System: μHF
Test: Cytotoxicity testing on μHF, viability by ATP (CellTiter Glo)
Type: cell-based, human
Condition description: 100 ng/ml; N = 5 μHF; CN 1306.1
Peptide text beside a SMILES is read from it.
Mean ATP content in μHF after 24 H treatment reference
Quick reminder: number only, in nM, skip the unit.

• NCCCC[C@H](NC(=O)[C@@H](N)CCC(=O)O)C(=O)N[C@@H](CC(=O)O)C(=O)N[C@@H](CC(=O)O)C(=O)O [Peptide P5, EKDD] (H-EKDD-OH; N-terminus and C-terminus assumed) = 1255.5
• CC(C)[C@H](NC(=O)[C@H](CCCNC(=N)N)NC(=O)[C@@H](N)CC(=O)O)C(=O)N[C@@H](CCC(=O)O)C(=O)O [Peptide P10, DRVE] (H-DRVE-OH; N-terminus and C-terminus assumed) = 1329.1

Continue with the compound presented below.
Task: Fill in the blank: the reported Mean ATP content in μHF after 24 H treatment of CC(C)[C@H](NC(=O)[C@H](CCCNC(=N)N)NC(=O)[C@@H](N)CC(=O)O)C(=O)O [Peptide P13, DRV] (H-Asp-Arg-Val-OH) is ____.
Result: 404.1

###

Test system: μHF
Test: Cytotoxicity testing on μHF, viability by ATP (CellTiter Glo)
Type: cell-based, human
Condition description: 1 ng/ml; N = 5 μHF; CN 1306.1
Peptide text beside a SMILES is read from it.
Criterion: Mean ATP content in μHF after 24 H treatment strictly under 600 nM. Met: Met. Not met: Not met.

Examples with answers:
- CC(C)[C@H](NC(=O)[C@H](CCCNC(=N)N)NC(=O)[C@@H](N)CC(=O)O)C(=O)N[C@@H](CCC(=O)O)C(=O)O [Peptide P10, DRVE] (H-DRVE-OH; N-terminus and C-terminus assumed): Not met
- C[C@@H](O)[C@H](NC(=O)[C@H](CCCNC(=N)N)NC(=O)[C@@H](N)CC(=O)O)C(=O)N[C@@H](CC(=O)O)C(=O)O [Peptide P11, DRTD] (H-DRTD-OH; N-terminus and C-terminus assumed): Met
- CC[C@H](C)[C@H](N)C(=O)N[C@@H](CCC(=O)O)C(=O)N[C@@H](CCCCN)C(=O)N[C@H](C(=O)O)C(C)C [Peptide P12, IEKV] (H-IEKV-OH; N-terminus and C-terminus assumed): Met
- CC(C)[C@H](NC(=O)[C@H](CCCNC(=N)N)NC(=O)[C@@H](N)CC(=O)O)C(=O)O [Peptide P13, DRV] (H-Asp-Arg-Val-OH): Met

Moving on to another compound below.
Task: I'd appreciate it if you could check whether C[C@@H](O)[C@H](NC(=O)[C@H](CCCNC(=N)N)NC(=O)[C@@H](N)CCCCN)C(=O)NCC(=O)O [Peptide P6, KRTG] (H-KRTG-OH; N-terminus and C-terminus assumed) has Mean ATP content in μHF after 24 H treatment smaller than 600 nM.
Result: Not met

###

Mean ATP content in μHF after 24 H treatment reference
Tested on: μHF
Test: Cytotoxicity testing on μHF, viability by ATP (CellTiter Glo)
Type: cell-based, human
Condition description: 10 ng/ml; N = 5 μHF; CN 1306.1
Peptide text beside a SMILES is read from it.
Quick reminder: number only, in nM, skip the unit.

• NCCCC[C@H](NC(=O)[C@@H](N)CCC(=O)O)C(=O)N[C@@H](CC(N)=O)C(=O)N[C@@H](CC(=O)O)C(=O)O [Peptide P7, EKND] (H-EKND-OH; N-terminus and C-terminus assumed) = 1243.9
• CC[C@H](C)[C@H](N)C(=O)N[C@@H](CCC(=O)O)C(=O)N[C@@H](CCCCN)C(=O)N[C@H](C(=O)O)C(C)C [Peptide P12, IEKV] (H-IEKV-OH; N-terminus and C-terminus assumed) = 562.8

Continue with the compound presented below.
Task: Request: Mean ATP content in μHF after 24 H treatment, test system μHF, entry CC(C)C[C@H](NC(=O)[C@H](CCC(N)=O)NC(=O)[C@@H](N)CCCCN)C(=O)N[C@@H](CCCNC(=N)N)C(=O)O [Peptide P1, KQLR] (H-KQLR-OH; N-terminus and C-terminus assumed)
Result: 2007.2

###

Mean ATP content in μHF after 24 H treatment reference
System: μHF
Test: Cytotoxicity testing on μHF, viability by ATP (CellTiter Glo)
Type: cell-based, human
Condition description: 1 ng/ml; N = 5 μHF; CN 1306.1
Peptide text beside a SMILES is read from it.
Quick reminder: number only, in nM, skip the unit.

Take a look at these entries with their results.
• NCCCC[C@H](NC(=O)[C@@H](N)CCC(=O)O)C(=O)N[C@@H](CC(N)=O)C(=O)N[C@@H](CC(=O)O)C(=O)O [Peptide P7, EKND] (H-EKND-OH; N-terminus and C-terminus assumed) = 1275.4
• NCCCC[C@H](NC(=O)[C@@H](N)CC(=O)O)C(=O)N[C@@H](CO)C(=O)N[C@@H](CCC(=O)O)C(=O)O [Peptide P9, DKSE] (H-DKSE-OH; N-terminus and C-terminus assumed) = 1521.4

Continue with the molecule presented below.
Task: Request: Mean ATP content in μHF after 24 H treatment, test system μHF, entry CC(C)C[C@H](NC(=O)[C@H](CCC(N)=O)NC(=O)[C@@H](N)CCCCN)C(=O)N[C@@H](CCCNC(=N)N)C(=O)O [Peptide P1, KQLR] (H-KQLR-OH; N-terminus and C-terminus assumed)
Result: 1876.5

###

Tested on: μHF
Test: Cytotoxicity testing on μHF, viability by ATP (CellTiter Glo)
Type: cell-based, human
Condition description: 10 ng/ml; N = 5 μHF; CN 1306.1
Peptide text beside a SMILES is read from it.
Quantity measured: Mean ATP content in μHF after 24 H treatment (nM)
Quick reminder: number only, in nM, skip the unit.

Take a look at these entries with their results.
* C[C@@H](O)[C@H](NC(=O)[C@H](CCCCN)NC(=O)[C@@H](N)CCC(=O)O)C(=O)N[C@@H](CC(=O)O)C(=O)O [Peptide P4, EKTD] (H-EKTD-OH; N-terminus and C-terminus assumed) | 1715.2
* C[C@@H](O)[C@H](NC(=O)[C@H](CCCNC(=N)N)NC(=O)[C@@H](N)CC(=O)O)C(=O)N[C@@H](CC(=O)O)C(=O)O [Peptide P11, DRTD] (H-DRTD-OH; N-terminus and C-terminus assumed) | 447.0
* N=C(N)NCCC[C@H](NC(=O)[C@@H](N)CC(=O)O)C(=O)N[C@@H](CC(=O)O)C(=O)N[C@@H](CCC(=O)O)C(=O)O [Peptide P8, DRDE] (H-DRDE-OH; N-terminus and C-terminus assumed) | 1155.5
* NCCCC[C@H](NC(=O)[C@@H](N)CC(=O)O)C(=O)N[C@@H](CO)C(=O)N[C@@H](CCC(=O)O)C(=O)O [Peptide P9, DKSE] (H-DKSE-OH; N-terminus and C-terminus assumed) | 1273.6

Continue with the compound presented below.
Task: Fill in the blank: the reported Mean ATP content in μHF after 24 H treatment of CC(C)[C@H](NC(=O)[C@H](CCCNC(=N)N)NC(=O)[C@@H](N)CC(=O)O)C(=O)O [Peptide P13, DRV] (H-Asp-Arg-Val-OH) is ____.
Result: 516.6

###

System: μHF
Test: Cytotoxicity testing on μHF, viability by ATP (CellTiter Glo)
Format: cell-based, human
Condition description: 100 ng/ml; N = 5 μHF; CN 1306.1
Peptide text beside a SMILES is read from it.
Mean ATP content in μHF after 24 H treatment reference
Quick reminder: number only, in nM, skip the unit.

Take a look at these entries with their results.
* CC(C)C[C@H](NC(=O)[C@H](CCC(N)=O)NC(=O)[C@@H](N)CCCCN)C(=O)N[C@@H](CCCNC(=N)N)C(=O)O [Peptide P1, KQLR] (H-KQLR-OH; N-terminus and C-terminus assumed) | 1903.1
* N=C(N)NCCC[C@H](NC(=O)[C@@H](N)CC(=O)O)C(=O)N[C@@H](CC(=O)O)C(=O)N[C@@H](CCC(=O)O)C(=O)O [Peptide P8, DRDE] (H-DRDE-OH; N-terminus and C-terminus assumed) | 1229.3
* C[C@@H](O)[C@H](NC(=O)[C@H](CCCCN)NC(=O)[C@@H](N)CCC(=O)O)C(=O)N[C@@H](CC(=O)O)C(=O)O [Peptide P4, EKTD] (H-EKTD-OH; N-terminus and C-terminus assumed) | 1597.4
* C[C@@H](O)[C@H](NC(=O)[C@H](CCCNC(=N)N)NC(=O)[C@@H](N)CCCCN)C(=O)NCC(=O)O [Peptide P6, KRTG] (H-KRTG-OH; N-terminus and C-terminus assumed) | 1313.3
* C[C@@H](O)[C@H](NC(=O)[C@H](CCCNC(=N)N)NC(=O)[C@@H](N)CC(=O)O)C(=O)N[C@@H](CC(=O)O)C(=O)O [Peptide P11, DRTD] (H-DRTD-OH; N-terminus and C-terminus assumed) | 149.0

Continue with the molecule presented below.
Task: Fill in the blank: the reported Mean ATP content in μHF after 24 H treatment of NCCCC[C@H](NC(=O)[C@@H](N)CC(=O)O)C(=O)N[C@@H](CO)C(=O)N[C@@H](CCC(=O)O)C(=O)O [Peptide P9, DKSE] (H-DKSE-OH; N-terminus and C-terminus assumed) is ____.
Result: 1469.4
